molecular target: Human recombinant PDE10A2 (Homo sapiens (Human)); assay: In vitro hPDE10a: human recombinant PDE10A2 scintillation proximity assay, IC50; format: biochemical; conditions: human recombinant PDE10A2, SPA, 60 nM cAMP; read-out: hPDE10a2 IC50
Sequence (Q9Y233 267-1055): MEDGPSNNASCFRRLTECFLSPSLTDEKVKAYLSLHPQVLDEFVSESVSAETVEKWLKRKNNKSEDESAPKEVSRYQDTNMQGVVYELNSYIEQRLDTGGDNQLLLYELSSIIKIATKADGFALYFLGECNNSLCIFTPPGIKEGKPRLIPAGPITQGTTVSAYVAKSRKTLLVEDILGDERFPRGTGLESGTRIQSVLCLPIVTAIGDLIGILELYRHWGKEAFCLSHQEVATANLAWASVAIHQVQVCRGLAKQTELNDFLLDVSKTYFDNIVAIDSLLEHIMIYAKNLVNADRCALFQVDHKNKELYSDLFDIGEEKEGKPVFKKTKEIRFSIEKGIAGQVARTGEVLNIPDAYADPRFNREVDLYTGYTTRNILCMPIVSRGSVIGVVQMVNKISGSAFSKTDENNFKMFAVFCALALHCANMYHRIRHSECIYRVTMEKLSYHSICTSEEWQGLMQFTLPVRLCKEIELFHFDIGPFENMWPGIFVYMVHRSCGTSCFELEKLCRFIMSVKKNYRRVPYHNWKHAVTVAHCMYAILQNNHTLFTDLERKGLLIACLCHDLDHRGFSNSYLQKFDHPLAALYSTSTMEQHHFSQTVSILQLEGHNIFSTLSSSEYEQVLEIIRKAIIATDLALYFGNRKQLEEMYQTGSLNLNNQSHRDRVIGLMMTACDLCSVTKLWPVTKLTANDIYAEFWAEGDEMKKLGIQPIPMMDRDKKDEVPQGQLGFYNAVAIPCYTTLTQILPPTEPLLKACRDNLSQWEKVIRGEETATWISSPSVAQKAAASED
pIC50: −log10 of the molar value. Where a name gives a salt, the structure may show the parent alone.
Attribute measured: pIC50

molecule=O=C(O)CNC(=O)c1ccc(-c2c(/C=C/c3ccc4ccccc4n3)nc3c(N4CCOCC4)ccnn23)cc1 target="Human recombinant PDE10A2 (Homo sapiens (Human))" attribute_measured=pIC50 value_observed=8.05
molecule="CS(=O)(=O)NC(=O)CCc1ccc(-c2c(/C=C/c3ccc4ccccc4n3)nc3c(N4CCOCC4)ccnn23)cn1 [Cpd 129, trifluoroacetic acid salt]" target="Human recombinant PDE10A2 (Homo sapiens (Human))" attribute_measured=pIC50 value_observed=8.70

[a] O=C(O)c1ccc(-c2c([C@@H]3C[C@@H]3c3ccc4ccccc4n3)nc3c(N4CCOCC4)cc(Cl)nn23)cc1F [Cpd 165, trifluoroacetic acid salt]
[b] O=C(Nc1ccc2ccccc2n1)c1nc2c(N3CCOCC3)ccnn2c1-c1ccc(N2CCNCC2)nc1 [Cpd 3, trifluoroacetic acid salt]
[c] COc1cc(-c2c(/C=C/c3ccc4ccccc4n3)nc3c(N4CCOCC4)ccnn23)ccc1C(=O)O
[d] CC(C)(C(=O)O)c1ccc(-c2c([C@H]3C[C@H](c4ccc5ccccc5n4)C3)nc3c(N4CCOCC4)ccnn23)cc1
**Q:** Please list these molecules in decreasing order of pIC50. Reply format: the labels, ordered as requested.
**A:** d, a, c, b
